What inhibition at 10 µM was measured for each of the following?
# Tested on: A498
# assay_procedure: NCI-60 SRB screen
# Format: cell-based, human
# measurement_conditions: Homo sapiens; A498; single dose 10^−5 M; read-out: Growth inhibition (%)
Answers are plain numbers, in %.

Please review the following examples before continuing.
**Q:** Would you mind telling me what inhibition at 10 µM value was observed for N#CC1C(=O)NC(c2ccccc2[N+](=O)[O-])c2sc3c(F)cccc3c21 (stereo not shown) [Compound 5c] ?
**A:** 161

**Q:** Would you mind telling me what inhibition at 10 µM value was observed for O=C1NC(c2cccc([N+](=O)[O-])c2)c2sc3c(F)cccc3c2C1N1CCOCC1 (stereo not shown) [Compound 6b] ?
**A:** 13.5

**Q:** Would you mind telling me what inhibition at 10 µM value was observed for COc1ccc(C=C2Sc3c(F)cccc3C2=O)c(OC)c1 [Compound 2a] ?
**A:** -4.03

For the next question, use this compound.
**Q:** Would you mind telling me what inhibition at 10 µM value was observed for O=C1NC(c2cccc([N+](=O)[O-])c2)c2sc3c(F)cccc3c2C1N1CCCCC1 (stereo not shown) [Compound 6c] ?
**A:** 7.34
